All figures here come from ChEMBL document CHEMBL1121787.

Organism: Mus musculus
Experiment: Opioid antagonist activity of compound was measured as inhibiting the binding of normorphine to mouse vas deferens
Assay type: functional
READOUT_LABEL: Ke (nM)

In [3]: df
Out[3]:
                                   compound  uom  observed_result
0  O=C1C=C[C@@]2(Cl)C3Cc4ccc(O)c5c4C2(CCN3CC2CC2)[C@H]1O5 (some centres undefined)   nM             16.6
1  C=CCN1CC[C@]23c4c5ccc(O)c4O[C@H]2C(=O)CC[C@@]3(O)[C@H]1C5   nM             3.66
2  C=CCN1CC[C@]23c4c5ccc(O)c4O[C@H]2[C@@H](O)C=C[C@H]3[C@H]1C5   nM             28.7
3  O=C1C=C[C@@]2([N+](=O)[O-])C3Cc4ccc(O)c5c4C2(CCN3CC2CC2)[C@H]1O5 (some centres undefined)   nM             14.9

----------
Test system: Opioid receptors; mu & kappa
Conditions: Cavia porcellus; Ileum
Each record is given met if its reported Ke is strictly below 2 nM. Records at or above 2 nM are given not met.

>>> df
                                   molecule    label
0  O=C1C=C[C@@]2(Cl)C3Cc4ccc(O)c5c4C2(CCN3CC2CC2)[C@H]1O5 (some centres not stated)  not met
1  O=C1C=C[C@@]2([N+](=O)[O-])C3Cc4ccc(O)c5c4C2(CCN3CC2CC2)[C@H]1O5 (some centres not stated)  not met
2  Oc1ccc2c3c1O[C@H]1[C@@H](O)C=C[C@@]4(S)C(C2)N(CC2CC2)CCC314 (some centres not stated)      met
3  O=C1C=C[C@@]2(Br)C3Cc4ccc(O)c5c4C2(CCN3CC2CC2)[C@H]1O5 (some centres not stated)      met
4  C=CCN1CC[C@]23c4c5ccc(O)c4O[C@H]2[C@@H](O)C=C[C@H]3[C@H]1C5  not met
5  Oc1ccc2c3c1O[C@H]1[C@@H](O)C=C[C@@]4(O)C(C2)N(CC2CC2)CCC314 (some centres not stated)  not met
6  Oc1ccc2c3c1O[C@H]1[C@@H](O)C=C[C@H]4C(C2)N(CC2CC2)CCC341 (some centres not stated)      met
